Molecular target: TBK1 (Homo sapiens (Human), UniProt Q9UHD2)
Sequence (Q9UHD2 whole entry): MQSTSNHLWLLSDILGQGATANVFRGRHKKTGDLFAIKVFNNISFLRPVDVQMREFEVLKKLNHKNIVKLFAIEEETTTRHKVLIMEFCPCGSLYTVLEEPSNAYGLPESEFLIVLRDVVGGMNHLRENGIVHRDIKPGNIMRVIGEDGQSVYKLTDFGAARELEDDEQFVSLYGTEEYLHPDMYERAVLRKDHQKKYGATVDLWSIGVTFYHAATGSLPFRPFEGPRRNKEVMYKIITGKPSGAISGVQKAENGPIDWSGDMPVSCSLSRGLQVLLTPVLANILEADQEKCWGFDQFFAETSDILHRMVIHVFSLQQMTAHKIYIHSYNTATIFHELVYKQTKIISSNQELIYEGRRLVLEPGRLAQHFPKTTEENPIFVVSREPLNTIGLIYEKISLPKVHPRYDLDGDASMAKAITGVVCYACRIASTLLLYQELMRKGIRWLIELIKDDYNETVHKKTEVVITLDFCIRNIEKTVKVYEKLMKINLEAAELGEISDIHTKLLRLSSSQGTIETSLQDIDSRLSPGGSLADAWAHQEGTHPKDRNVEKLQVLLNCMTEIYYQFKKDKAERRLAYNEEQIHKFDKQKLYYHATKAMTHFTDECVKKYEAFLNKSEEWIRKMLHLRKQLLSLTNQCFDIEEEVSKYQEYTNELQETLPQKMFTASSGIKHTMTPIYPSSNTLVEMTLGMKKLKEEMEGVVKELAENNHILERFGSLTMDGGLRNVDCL
Assay: TBK1 TR-FRET enzymatic assay;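 further: phosphorylation of a biotinylated Ser/Thr peptide by purified full-length recombinant TBK1, read by TR-FRET after 240 min at 25 °C, IC50 is the geometric mean of at least four runs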
pIC50: −log10 of the molar value.
# key: entry, value: pIC50
Property Measured: pIC50

>>> print(df.to_string())
                                    compound  readout_number
 0  N#CCCC(=O)N1CC[C@H](Oc2ccc(-c3ncnc(Nc4ccc(N5CCN(C6COC6)CC5)cc4)n3)cc2C#N)[C@H](F)C1            7.77
 1  N#Cc1cc(-c2ncnc(Nc3ccc(C4CCN(C5COC5)CC4)cc3)n2)ccc1OC1CCOCC1            8.70
 2  CC1CC(Oc2ccc(-c3ncnc(Nc4ccc(N5CCN(C6COC6)CC5)cc4)n3)cc2C#N)CC(C)N1C(=O)CO (stereo not drawn)            8.70
 3  N#Cc1cc(-c2ncnc(Nc3ccc(N4CCN(C5COC5)CC4)cc3)n2)ccc1O[C@H]1CCCN(C(=O)CO)C1            6.74
 4  C[C@H](O)C(=O)N1CC[C@H](Oc2ccc(-c3ncnc(Nc4cnn(C(C)(C)C)c4)n3)cc2C#N)[C@H](F)C1            8.40
 5  N#Cc1cc(-c2ncnc(Nc3ccc(N4CCN(C5COC5)CC4)cc3)n2)ccc1OC1CCN(C(=O)CNC=O)CC1            7.59
 6  CC(C)n1cc(Nc2ncnc(-c3ccc(O[C@H]4CCN(C(=O)[C@@H](O)CO)C[C@H]4F)c(C#N)c3)n2)cn1            8.70
 7  C[C@H]1C[C@@H](Oc2ccc(-c3ncnc(Nc4ccc(N5CCN(C6COC6)CC5)cc4)n3)cc2C#N)CCN1C(=O)CC#N            8.30
 8  N#Cc1cc(-c2ncnc(Nc3ccc(N4CCN(C5COC5)CC4)cc3)n2)ccc1O[C@H]1CCN(C(=O)c2ccn[nH]2)CC1(F)F            8.52
 9  N#Cc1cc(-c2ncnc(Nc3cccc(N4CCOCC4)c3)n2)ccc1O[C@@H]1CCN(C(=O)CO)C1            7.57
10  N#Cc1cc(-c2ncnc(Nc3ccc(N4CCN(C5COC5)CC4)cc3)n2)ccc1OCC1CCNC(=O)C1 (stereo not drawn)            7.55
11  N#Cc1cc(-c2ncnc(Nc3ccc(N4CCN(C5COC5)CC4)cc3)n2)ccc1OC1CNCC1(F)F (stereo not drawn)            8.22
12  C[C@H](O)C(=O)N1CC[C@H](Oc2ccc(-c3ncnc(Nc4cnn(CC(F)F)c4)n3)cc2C#N)[C@H](F)C1            8.40
13  C[C@H](O)C(=O)N1CC[C@H](Oc2ccc(-c3ncnc(Nc4ccc(C5CCOCC5)cc4)n3)cc2C#N)[C@H](F)C1            8.52
14  C[C@H](O)C(=O)N1CC[C@H](Oc2ccc(-c3ncnc(Nc4ccc(-n5ccnc5)cc4)n3)cc2C#N)[C@H](F)C1            8.30
15  N#Cc1cc(-c2ncnc(Nc3ccc(N4CCN(C5COC5)CC4)cc3)n2)ccc1O[C@H]1CCN(C(=O)[C@@H]2CSC(=O)N2)CC1(F)F            8.70
16  COCC(O)C(=O)N1CC[C@H](Oc2ccc(-c3ncnc(Nc4ccc(N5CCN(C6COC6)CC5)cc4)n3)cc2C#N)[C@H](F)C1 (stereo partly drawn)            8.22
17  N#Cc1cc(-c2ncnc(Nc3ccc(N4CCN(C5COC5)CC4)cc3)n2)ccc1O[C@H]1CCN(C(=O)[C@@H](O)CO)C[C@H]1F            8.70
18  N#Cc1cc(-c2ncnc(Nc3ccc(N4CCN(C5COC5)CC4)cc3)n2)ccc1O[C@H]1CCNCC1(F)F (single isomer, unassigned)            7.31
19  N#Cc1cc(-c2ncnc(Nc3ccc(N4CCN(C5COC5)CC4)cc3)n2)ccc1N1CC[C@H](O)C1            8.15
20  N#Cc1cc(-c2ncnc(Nc3ccc(N4CCN(C5COC5)CC4)cc3)n2)ccc1O[C@H]1CCCC[C@H]1N            6.58
21  N#Cc1cc(-c2ncnc(Nc3ccc(N4CCN(C5COC5)CC4)cc3)n2)ccc1O[C@@H]1CCOC1            8.30
22  N#Cc1cc(-c2ncnc(Nc3ccc(OCCN4CCCC4)cc3)n2)ccc1OC1CCOCC1            8.00
23  CN1CCC(c2ccc(Nc3ncnc(-c4ccc(OC5CCOCC5)c(C#N)c4)n3)cc2)CC1            9.00
24  Cc1ncc(Nc2ncnc(-c3ccc(O[C@H]4CCN(C(=O)[C@H](C)O)C[C@H]4F)c(C#N)c3)n2)s1            8.52
25  CN(CCO)C(=O)N1CC[C@H](Oc2ccc(-c3ncnc(Nc4ccc(N5CCN(C6COC6)CC5)cc4)n3)cc2C#N)[C@H](F)C1            7.39
26  Cn1cncc1C(=O)N1CC[C@H](Oc2ccc(-c3ncnc(Nc4ccc(N5CCN(C6COC6)CC5)cc4)n3)cc2C#N)[C@H](F)C1            6.92
